These data points were gathered from paper PMC4027167.

target: the molecule itself; experiment: SEC-MALS; 150 mM NaCl, 20 mM HEPES-KOH pH 7.5; MAbPac SEC-1 column (Figure 1) or Superdex S200 10/300 (Figures 5 and 7)
measured quantity: stoichiometry N

[[record]]
protein = "Vps75 K169E (natural protein, budding yeast, UniProt P53853 1-264, looked up, Vps75 of budding yeast, point mutant in the C21A/C212A construct) MMSDQENENEHAKAFLGLAKAEEEVDAIEREVELYRLNKMKPVYEKRDAYIDEIAEFWKIVLSQHVSFANYIRASDFKYIDTIDKIKVEWLALESEMYDTRDFSITFHFHGIEGDFKEQQVTKVFQIKKGKDDQEDGILTSEPVPIEWPQSYDSINPDLIKDKRSPEGEKKYRQGMKTIFGWFRWTGLKPGKEFPHGDSLASLFSEEIYPFAVKYYAEAQRDLEDEEGESGLSADGDSEDDDGSLGEVDLPLSDEEPSSKKRKV"
endpoint_result = "~2"

[[record]]
protein = "Vps75 R164D (natural protein, budding yeast, UniProt P53853 1-264, looked up, Vps75 of budding yeast, point mutant in the C21A/C212A construct) MMSDQENENEHAKAFLGLAKAEEEVDAIEREVELYRLNKMKPVYEKRDAYIDEIAEFWKIVLSQHVSFANYIRASDFKYIDTIDKIKVEWLALESEMYDTRDFSITFHFHGIEGDFKEQQVTKVFQIKKGKDDQEDGILTSEPVPIEWPQSYDSINPDLIKDKDSPEGKKKYRQGMKTIFGWFRWTGLKPGKEFPHGDSLASLFSEEIYPFAVKYYAEAQRDLEDEEGESGLSADGDSEDDDGSLGEVDLPLSDEEPSSKKRKV"
endpoint_result = "~2"

[[record]]
protein = "Vps75 triple mutant protein (R164D, K169E, K170E) (natural protein, budding yeast, UniProt P53853 1-264, looked up, Vps75 of budding yeast, mutant in the C21A/C212A construct) MMSDQENENEHAKAFLGLAKAEEEVDAIEREVELYRLNKMKPVYEKRDAYIDEIAEFWKIVLSQHVSFANYIRASDFKYIDTIDKIKVEWLALESEMYDTRDFSITFHFHGIEGDFKEQQVTKVFQIKKGKDDQEDGILTSEPVPIEWPQSYDSINPDLIKDKDSPEGEEKYRQGMKTIFGWFRWTGLKPGKEFPHGDSLASLFSEEIYPFAVKYYAEAQRDLEDEEGESGLSADGDSEDDDGSLGEVDLPLSDEEPSSKKRKV"
endpoint_result = 2


In the following, a different protein is considered.
Problem: I would be grateful if you could share the reported stoichiometry N for Vps75 K170E (natural protein, budding yeast, UniProt P53853 1-264, looked up, Vps75 of budding yeast, point mutant in the C21A/C212A construct) MMSDQENENEHAKAFLGLAKAEEEVDAIEREVELYRLNKMKPVYEKRDAYIDEIAEFWKIVLSQHVSFANYIRASDFKYIDTIDKIKVEWLALESEMYDTRDFSITFHFHGIEGDFKEQQVTKVFQIKKGKDDQEDGILTSEPVPIEWPQSYDSINPDLIKDKRSPEGKEKYRQGMKTIFGWFRWTGLKPGKEFPHGDSLASLFSEEIYPFAVKYYAEAQRDLEDEEGESGLSADGDSEDDDGSLGEVDLPLSDEEPSSKKRKV .
Solution: ~2
